pIC50: −log10 of the molar value.
What follows is a record of pIC50 for UniProt:Q9WMX2.

[
  {
    "COMPOUND": "Cc1cccc(C)c1CN1CC(=O)N(c2cc(-c3ccccc3)sc2C(=O)O)[C@H](C2CCCCC2)C1",
    "ASSAY SYSTEM": "UniProt:Q9WMX2",
    "pIC50": 6.27
  },
  {
    "COMPOUND": "CC(C)(C)C#Cc1cc(N2C(=O)[C@@](C)(CC(O)CO)OC[C@H]2C2CCCCC2)c(C(=O)O)s1 (some centres unmarked)",
    "ASSAY SYSTEM": "UniProt:Q9WMX2",
    "pIC50": 8.52
  },
  {
    "COMPOUND": "O=C(O)c1sc(-c2ccc(Cl)cc2)cc1N1C(=O)CN(S(=O)(=O)c2ccc(N3CC4CC3CO4)nc2)C[C@H]1C1CCCCC1 (some centres unmarked)",
    "ASSAY SYSTEM": "UniProt:Q9WMX2",
    "pIC50": 9.00
  },
  {
    "COMPOUND": "COc1cc(F)c(S(=O)(=O)N2CC(=O)N(c3cc(C#CC(C)(C)C)sc3C(=O)O)[C@H](C3CCCCC3)C2)cc1OC",
    "ASSAY SYSTEM": "UniProt:Q9WMX2",
    "pIC50": 8.70
  },
  {
    "COMPOUND": "O=C(O)c1sc(-c2ccccc2)cc1N1C(=O)CN(CCc2ccccc2)C[C@H]1C1CCCCC1",
    "ASSAY SYSTEM": "UniProt:Q9WMX2",
    "pIC50": 6.21
  },
  {
    "COMPOUND": "CC(C)(C)C#Cc1cc(N2C(=O)C(CCCO)OC[C@H]2C2CCCCC2)c(C(=O)O)s1 (some centres unmarked)",
    "ASSAY SYSTEM": "UniProt:Q9WMX2",
    "pIC50": 8.30
  },
  {
    "COMPOUND": "Cn1ccc2cccc(S(=O)(=O)N3CC(=O)N(c4cc(-c5ccccc5)sc4C(=O)O)C(C4CCCCC4)C3)c21 (centres unmarked)",
    "ASSAY SYSTEM": "UniProt:Q9WMX2",
    "pIC50": 6.59
  },
  {
    "COMPOUND": "O=C1CC(=O)N(c2cc(-c3ccccc3)sc2C(=O)O)C(C2CCCCC2)C1 (centres unmarked)",
    "ASSAY SYSTEM": "UniProt:Q9WMX2",
    "pIC50": 7.10
  },
  {
    "COMPOUND": "O=C(O)c1sc(-c2ccccc2)cc1N1C(=O)CN(S(=O)(=O)c2ccc(N3CC[C@@H](F)C3)nc2)CC1C1CCCCC1 (some centres unmarked)",
    "ASSAY SYSTEM": "UniProt:Q9WMX2",
    "pIC50": 8.22
  },
  {
    "COMPOUND": "O=C(O)c1sc(-c2ccccc2)cc1N1C(=O)CN(S(=O)(=O)c2ccc(-c3cncnc3)nc2)C[C@H]1C1CCCCC1",
    "ASSAY SYSTEM": "UniProt:Q9WMX2",
    "pIC50": 9.00
  },
  {
    "COMPOUND": "O=C(O)c1sc(-c2ccccc2)cc1N1C(=O)CN(S(=O)(=O)c2ccc(N3CCC3)nc2)CC1C1CCCCC1 (centres unmarked)",
    "ASSAY SYSTEM": "UniProt:Q9WMX2",
    "pIC50": 7.92
  },
  {
    "COMPOUND": "CC(C)(C)C#Cc1cc(N2C(=O)CCC[C@@H]2C2CCCCC2)c(C(=O)O)s1",
    "ASSAY SYSTEM": "UniProt:Q9WMX2",
    "pIC50": 5.98
  },
  {
    "COMPOUND": "CC(C)(C)C#Cc1cc(N2C(=O)COC[C@H]2C2CCCCC2)c(C(=O)NS(C)(=O)=O)s1",
    "ASSAY SYSTEM": "UniProt:Q9WMX2",
    "pIC50": 7.27
  },
  {
    "COMPOUND": "O=C(O)c1sc(-c2ccccc2)cc1N1C(=O)CN(Cc2ccc(N3CCCC3=O)cc2)C[C@H]1C1CCCCC1",
    "ASSAY SYSTEM": "UniProt:Q9WMX2",
    "pIC50": 7.60
  }
]

====

system: HCV replicon I389luc-ubi-neo/NS3-3′/ET in ET (Huh-lucubineo-ET) cells; experiment: Replicon assay (Biological Example 2), luciferase readout; type: cell-based; conditions: Hepatitis C virus; ET cells, luciferase activity 48 hours after compound
pIC50: −log10 of the molar value.
Known pIC50 of a selection of compounds

[
  {
    "COMPOUND": "O=C(O)c1sc(-c2ccc(Cl)cc2)cc1N1C(=O)CN(S(=O)(=O)c2ccc(N3C[C@H]4C[C@@H]3CO4)nc2)C[C@H]1C1CCCCC1",
    "pIC50": "≥ 7.00"
  },
  {
    "COMPOUND": "CC1CCN(c2ccc(S(=O)(=O)N3CC(=O)N(c4cc(-c5ccccc5)sc4C(=O)O)C(C4CCCCC4)C3)cn2)CC1 (centres unmarked)",
    "pIC50": "≥ 7.00"
  },
  {
    "COMPOUND": "O=C(O)c1sc(-c2ccccc2)cc1N1C(=O)CN(S(=O)(=O)c2cccc(Cl)c2Cl)CC1C1CCCCC1 (centres unmarked)",
    "pIC50": "≤ 5.30"
  },
  {
    "COMPOUND": "O=C(O)c1sc(-c2ccc(F)cc2)cc1N1C(=O)CN(S(=O)(=O)c2ccc(N3CCOCC3)nc2)C[C@H]1C1CCCCC1",
    "pIC50": "≥ 7.00"
  },
  {
    "COMPOUND": "O=C(O)c1sc(-c2ccc(Cl)cc2)cc1N1C(=O)CN(S(=O)(=O)c2ccc(N3CCCCC3)cc2)C[C@H]1C1CCCCC1",
    "pIC50": "≥ 7.00"
  },
  {
    "COMPOUND": "CC(C)(C)C#Cc1cc(N2C(=O)CN(S(=O)(=O)c3c(F)cccc3F)C[C@H]2C2CCCCC2)c(C(=O)O)s1",
    "pIC50": "≥ 7.00"
  },
  {
    "COMPOUND": "O=C(O)c1sc(-c2ccccc2)cc1N1C(=O)CN(S(=O)(=O)c2ccc(N3CC[C@@H](O)C3)nc2)CC1C1CCCCC1 (some centres unmarked)",
    "pIC50": "≥ 7.00"
  },
  {
    "COMPOUND": "CC1(C)OC[C@@H](C2CCCCC2)N(c2cc(-c3ccc(Cl)cc3)sc2C(=O)O)C1=O",
    "pIC50": "≥ 7.00"
  },
  {
    "COMPOUND": "O=C(O)c1sc(-c2ccccc2)cc1N1C(=O)CN(S(=O)(=O)c2ccc(NC3CCOCC3)nc2)C[C@H]1C1CCCCC1",
    "pIC50": "≥ 7.00"
  },
  {
    "COMPOUND": "CC(C)(C)C#Cc1cc(N2C(=O)CN(S(=O)(=O)c3ccc(N4CCOCC4)nc3)CC2C2CCCCC2)c(C(=O)O)s1 (centres unmarked)",
    "pIC50": "≥ 7.00"
  },
  {
    "COMPOUND": "C[C@@H]1CCCN1c1ccc(S(=O)(=O)N2CC(=O)N(c3cc(-c4ccccc4)sc3C(=O)O)C(C3CCCCC3)C2)cn1 (some centres unmarked)",
    "pIC50": "≥ 7.00"
  },
  {
    "COMPOUND": "Cc1ccc(-c2cc(N3C(=O)CN(S(=O)(=O)c4ccc(N5C[C@H]6C[C@@H]5CO6)nc4)C[C@H]3C3CCCCC3)c(C(=O)O)s2)cc1",
    "pIC50": "≥ 7.00"
  },
  {
    "COMPOUND": "CC(C)(C)C#Cc1cc(N2C(=O)C3(CCOCC3)OC[C@H]2C2CCCCC2)c(C(=O)O)s1",
    "pIC50": "≥ 7.00"
  },
  {
    "COMPOUND": "CC(C)(C)OC(=O)N[C@H]1CCCN(c2ccc(S(=O)(=O)N3CC(=O)N(c4cc(-c5ccccc5)sc4C(=O)O)[C@H](C4CCCCC4)C3)cn2)C1",
    "pIC50": "≥ 7.00"
  },
  {
    "COMPOUND": "CC(C)(C)C#Cc1cc(N2C(=O)C(C)(C)OC[C@H]2C2CCCCC2)c(C(=O)O)s1",
    "pIC50": "≥ 7.00"
  },
  {
    "COMPOUND": "CN(C)[C@H]1CCN(c2ccc(S(=O)(=O)N3CC(=O)N(c4cc(-c5ccccc5)sc4C(=O)O)[C@H](C4CCCCC4)C3)cn2)C1",
    "pIC50": "≥ 7.00"
  },
  {
    "COMPOUND": "C[C@@H]1COCCN1c1ccc(S(=O)(=O)N2CC(=O)N(c3cc(-c4ccccc4)sc3C(=O)O)[C@H](C3CCCCC3)C2)cn1",
    "pIC50": "≥ 7.00"
  },
  {
    "COMPOUND": "O=C(O)CCS(=O)(=O)N1CC(=O)N(c2cc(-c3ccccc3)sc2C(=O)O)C(C2CCCCC2)C1 (centres unmarked)",
    "pIC50": "≤ 5.30"
  },
  {
    "COMPOUND": "O=C(O)c1sc(-c2ccccc2)cc1N1C(=O)CN(S(=O)(=O)c2ccc(N3CCOCC3)nc2)C[C@H]1C1CCCCC1",
    "pIC50": "≥ 7.00"
  },
  {
    "COMPOUND": "Cc1ccc(CN2CC(=O)N(c3cc(C#CC(C)(C)C)sc3C(=O)O)C(C3CCCCC3)C2)cc1 (centres unmarked)",
    "pIC50": "≤ 5.30"
  },
  {
    "COMPOUND": "O=C(O)c1sc(-c2ccc(F)cc2)cc1N1C(=O)CN(S(=O)(=O)c2ccc(N3CCCC3)nc2)C[C@H]1C1CCCCC1",
    "pIC50": "≥ 7.00"
  },
  {
    "COMPOUND": "CN(c1ccc(S(=O)(=O)N2CC(=O)N(c3cc(-c4ccccc4)sc3C(=O)O)C(C3CCCCC3)C2)cn1)C1CCCCC1 (centres unmarked)",
    "pIC50": "≥ 7.00"
  },
  {
    "COMPOUND": "CN1CCOc2cc(S(=O)(=O)N3CC(=O)N(c4cc(-c5ccccc5)sc4C(=O)O)C(C4CCCCC4)C3)cnc21 (centres unmarked)",
    "pIC50": "≥ 7.00"
  },
  {
    "COMPOUND": "O=C(O)c1sc(-c2ccccc2)cc1N1C(=O)CN(S(=O)(=O)c2ccc(-c3ccc(CN4CCOCC4)cc3)nc2)C[C@H]1C1CCCCC1",
    "pIC50": "≥ 7.00"
  },
  {
    "COMPOUND": "N[C@H]1CC(=O)N(c2cc(-c3ccccc3)sc2C(=O)O)[C@H](C2CCCCC2)C1",
    "pIC50": "≤ 5.30"
  },
  {
    "COMPOUND": "CC(C)(C)C#Cc1cc(N2C(=O)[C@](C)(CCO)OC[C@H]2C2CCCCC2)c(C(=O)O)s1",
    "pIC50": "≥ 7.00"
  }
]

Ref: patent US9498483B2
